# ASSAY_REMARKS: Solubility in water and in ethanol
# Format: physicochemical
# TEST_PARAMETERS: organic solvent or mixture; at 25° C. in ethanol; read-out: solubility in ethanol
READOUT_TYPE: solubility (mg/mL)
The reply should contain only the number, in mg/mL.

Note to self: solubility recorded for O=c1c(O)c(-c2ccc(O)c(O)c2)oc2cc(O)cc(O)c12 [quercetin, 3,3′,4′,5,7-pentahydroxyflavone] was 15.8
